biological target: CTLA4 (human); experiment: flow cytometry, CHO cells stably expressing CTLA4
Sequence (chain, as listed by the source): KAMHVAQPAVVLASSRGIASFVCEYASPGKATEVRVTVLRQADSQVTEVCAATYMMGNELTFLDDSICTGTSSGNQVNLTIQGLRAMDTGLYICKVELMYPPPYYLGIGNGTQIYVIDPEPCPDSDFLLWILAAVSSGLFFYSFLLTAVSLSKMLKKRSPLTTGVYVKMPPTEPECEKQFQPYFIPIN
ENDPOINT: Fold change to WT CD80 (fold)

[I] CD80 variant Q33L/E35D/T41S/M43I IgV-Fc (Fc fusion) VIHVTKEVKEVATLSCGHNVSVEELAQTRIYWLKDKKMVLSMISGDMNIWPEYKNRTIFDITNNLSIVILALRPSDEGTYECVVLKYEKDAFKREHLAEVT
[II] CD80 variant H18Y/A26E/Q33L/E35D/M47L/L85Q IgV-Fc (Fc fusion) VIHVTKEVKEVATLSCGYNVSVEELEQTRIYWLKDKKMVLTMMSGDLNIWPEYKNRTIFDITNNLSIVILALRPSDEGTYECVVQKYEKDAFKREHLAEVT
Which of the two items, I and II , has the greater recorded Fold change to WT CD80? I would appreciate it if you answered with the label of your choice.
I
